system: DU-145 prostate; assay: NCI-60 one-dose screen, 48 h (100 = growth as untreated, 0 = no growth, -100 = all killed); settings: 10 µM unless noted
Compounds without any hit were thinned out: in the full panel of roughly 83,000, 20% have a hit.
MEASURED_METRIC: growth (%)
Return type: number; implicit unit %.

Below: 3 molecules and their reported growth.
Please look at `O=C(CN1CCN(c2cc3c(cc2F)c(=O)c(C(=O)O)cn3C2CC2)CC1)Nc1nc(-c2ccc(Cl)cc2)cs1` and tell me its recorded growth on DU-145 prostate.
32

Please look at `CC/C(=C(\c1ccccc1)c1ccc(OCCNC)cc1)c1ccccc1` and tell me its recorded growth on DU-145 prostate.
-66.8

Please look at `CC[C@H](CO)Nc1nc(NCc2ccccc2)n2ncc(C(C)C)c2n1` and tell me its recorded growth on DU-145 prostate.
7.53

---
Please look at `Cc1ccccc1CCO` and tell me its recorded growth on DU-145 prostate.
111

Please look at `COc1cc(NCCCCN=C(N)N)c2ncccc2c1` and tell me its recorded growth on DU-145 prostate.
108

Please look at `O=c1cc(-c2ccccc2)[nH]c2ccccc12` and tell me its recorded growth on DU-145 prostate.
17.6

###

system: U251 CNS; experiment: NCI-60 one-dose screen, 48 h (100 = growth as untreated, 0 = no growth, -100 = all killed); details: 10 µM unless noted
About 83,000 compounds went through this panel and 20% of them were active in at least one assay; those are over-represented in the sample as a whole.
MEASURED_METRIC: growth (%)
Return type: number; implicit unit %.

Below: 10 compounds and their reported growth.
Give the reported growth for this compound. CC(=O)OC1Oc2cc(C)c(C)cc2-c2oc(=O)c(-c3cc4ccc(N(C)C)cc4oc3=O)cc21 (stereo unspecified)
115

Give the reported growth for this compound. `c1ccc(CSc2ncnc3nc[nH]c23)nc1`
113

Give the reported growth for this compound. CC1=NNC(=O)C1C (stereo unspecified)
105

Give the reported growth for this compound. `COc1ccc(/C=C2\CN(C(=O)CCN3CCC(=NO)CC3)C/C(=C\c3ccc(OC)cc3)C2=O)cc1`
-46.2

Give the reported growth for this compound. COCCOC(=O)C1=C(C)NC(=S)NC1c1ccc2c(c1)OCO2 (stereo unspecified)
104

Give the reported growth for this compound. `C/C(Cc1ccc(Cl)cc1)=C(\c1ccc(OCCN2CCCCCC2)cc1)c1ccc(OC(=O)C2CCCCC2)cc1`
45

Give the reported growth for this compound. `O=C(/C=C/c1ccc(Cl)cc1)/C=C/c1cc2ccccc2[nH]c1=O`
11.7

Give the reported growth for this compound. `c1ccc(Sc2ncnc3ccccc23)cc1`
87.2

Give the reported growth for this compound. `COC(/C=C/c1ccc([N+](=O)[O-])cc1)OC`
74.5

Give the reported growth for this compound. `COc1ccccc1/C=C(/C(=O)c1ccccc1)c1ccccc1`
96.4

Okay, now this compound:
Give the reported growth for this compound. `Cc1ccc(-c2nc(/C=N/Nc3cc(C)nc4ccc(Br)cc34)c(C)o2)cc1`
-76.4

###

tested on: SN12C renal; assay: NCI-60 one-dose screen, 48 h (100 = growth as untreated, 0 = no growth, -100 = all killed); details: 10 µM unless noted
The panel holds about 83,000 compounds, 20% with a hit somewhere; the sample as a whole holds those more often.
Use Met when the recorded growth is no lower than 80%; use Not met when it is lower.

Is it the case that `c1ccc(Sc2ncnc3ccccc23)cc1` has growth reaching or exceeding 80%?
Not met

---
Is it the case that `CCOC(=O)c1cnc2ccc(Br)cc2c1Nc1cccc(S(=O)(=O)NC)c1` has growth reaching or exceeding 80%?
Met

Is it the case that `CCOC(=O)Cc1cnn(C)c1NC(=O)c1ccc(Cl)cc1NC(C)=O` has growth reaching or exceeding 80%?
Met

Is it the case that `Cc1ccc(Nc2nc(N)nc(Nc3ccc4ccccc4c3)n2)cc1` has growth reaching or exceeding 80%?
Not met

Is it the case that `COc1cc2c(=O)n(CC3CCCCC3)c3c4cc[nH]c4ncc3c2cc1OC` has growth reaching or exceeding 80%?
Not met

Is it the case that `NS(=O)(=O)c1ccc(Nc2nc3n[nH]c(Nc4ccccc4)c3c(=O)[nH]2)cc1` has growth reaching or exceeding 80%?
Met

Is it the case that `Fc1ccc(Cc2ccc(F)cc2)cc1` has growth reaching or exceeding 80%?
Met

Is it the case that `COC1=CC(=O)C(OC)=C(OC)C1=O` has growth reaching or exceeding 80%?
Met

Is it the case that `CC(=O)Oc1ccc(Nc2c3ccccc3nc3ccccc23)cc1` has growth reaching or exceeding 80%?
Not met

Is it the case that `Cc1cccc(NC(=O)c2sc3nc4c(cc3c2N)C(=O)CCC4)c1` has growth reaching or exceeding 80%?
Not met

Is it the case that `O=c1ccc2cc3ccccc3cc2[nH]1` has growth reaching or exceeding 80%?
Met
